protocolText: Tmax in Sprague-Dawley rat at 2 mg/kg, iv measured upto 24 hrs by LC-MS/MS analysis
Type: ADME, organism-based
assayContext: in vivo
measure: Tmax

Report Tmax for `COc1ccc(-c2nc(-c3ccccc3O)n(-c3ccc(S(N)(=O)=O)cc3)n2)c(O)c1` please. 4.98 min

----------
protocolText: Half life in Sprague-Dawley rat at 20 mg/kg, po measured upto 24 hrs by LC-MS/MS analysis
Format: ADME, organism-based
assayContext: in vivo
measure: half-life

Report half-life for `COc1ccc(-c2nc(-c3ccccc3O)n(-c3ccc(S(N)(=O)=O)cc3)n2)c(O)c1` please. 4.26 h

----------
protocolText: Clearance in Sprague-Dawley rat at 2 mg/kg, iv measured upto 24 hrs by LC-MS/MS analysis
Format: ADME, organism-based
assayContext: in vivo
measure: clearance (mL/min/kg)
Your answer is read as mL/min/kg, so omit the unit and give the number.

Report clearance for `COc1ccc(-c2nc(-c3ccccc3O)n(-c3ccc(S(N)(=O)=O)cc3)n2)c(O)c1` please. 15

----------
protocolText: AUC (0 to infinity) in Sprague-Dawley rat at 20 mg/kg, po measured upto 24 hrs by LC-MS/MS analysis
Assay type: ADME, organism-based
Set-up: route oral, dose 20 mg/kg, time <=24
assayContext: in vivo
measure: AUC(0-inf) (ng·h/mL)
Your answer is read as ng·h/mL, so omit the unit and give the number.

Report AUC(0-inf) for `COc1ccc(-c2nc(-c3ccccc3O)n(-c3ccc(S(N)(=O)=O)cc3)n2)c(O)c1` please. 14200

----------
Test system: PC-12
protocolText: Cytoprotective activity against H2O2-induced cell death in rat PC-12 cells assessed as increase in cell viability at 10 uM incubated for 1 hr followed by H2O2 stimulation and measured after 5 hrs by MTT assay
Assay type: functional
assayContext: time 6.0 hrs
Calls of active or inactive are those of the source. The rule behind the calls is not given here.
measure: Activity

1) Cc1ccc(-c2nc(-c3ccc(C)cc3O)n(-c3ccc(S(N)(=O)=O)cc3)n2)c(O)c1 = inactive
2) NS(=O)(=O)c1ccc(-n2nc(-c3ccccc3)nc2-c2ccccc2O)cc1 = inactive
3) NS(=O)(=O)c1ccc(-n2nc(-c3ccc([N+](=O)[O-])cc3O)nc2-c2ccccc2O)cc1 = Active
4) NS(=O)(=O)c1ccc(-n2nc(-c3ccccc3O)nc2-c2ccccc2O)cc1 = Active

----------
protocolText: Clearance in Sprague-Dawley rat at 20 mg/kg, po measured upto 24 hrs by LC-MS/MS analysis
Assay type: ADME, organism-based
assayContext: in vivo
measure: CL/F
Note: a bare number is incomplete; add the unit.

Report CL/F for `COc1ccc(-c2nc(-c3ccccc3O)n(-c3ccc(S(N)(=O)=O)cc3)n2)c(O)c1` please. 1.4 L/h/kg

----------
protocolText: Tmax in Sprague-Dawley rat at 20 mg/kg, po measured upto 24 hrs by LC-MS/MS analysis
Assay type: ADME, organism-based
assayContext: in vivo
measure: Tmax (h)
Your answer is read as h, so omit the unit and give the number.

Report Tmax for `COc1ccc(-c2nc(-c3ccccc3O)n(-c3ccc(S(N)(=O)=O)cc3)n2)c(O)c1` please. 2

----------
Tested on: PC-12
protocolText: Cytoprotective activity against H2O2-induced cell death in rat PC-12 cells assessed as increase in cell viability at 10 uM incubated for 1 hr followed by H2O2 stimulation and measured after 5 hrs by MTT assay
Assay type: functional
assayContext: time 6.0 hrs
Activity calls are given as the source filed them. The rule behind the calls is not given here.
Please answer using one outcome listed in yes for active, no for inactive

Which outcome was entered for the molecule `NS(=O)(=O)c1ccc(-n2nc(-c3ccc(C(F)(F)F)cc3O)nc2-c2ccccc2O)cc1` in this test? yes

Also check `NS(=O)(=O)c1ccc(-n2nc(-c3ccc(Cl)cc3O)nc2-c2ccccc2O)cc1` yes

Also check `NS(=O)(=O)c1ccc(-n2nc(-c3ccc(C(F)(F)F)cc3)nc2-c2ccccc2O)cc1` no

Also check `NS(=O)(=O)c1ccc(-n2nc(-c3ccc(F)cc3O)nc2-c2ccc(F)cc2O)cc1` no

Also check `NS(=O)(=O)c1ccc(-n2nc(-c3ccc(F)cc3)nc2-c2ccccc2O)cc1` no

Also check `NS(=O)(=O)c1ccc(-n2nc(-c3ccc([N+](=O)[O-])cc3)nc2-c2ccccc2O)cc1` no

Also check `Cc1ccc(-c2nc(-c3ccccc3O)n(-c3ccc(S(N)(=O)=O)cc3)n2)c(O)c1` yes

Also check `NS(=O)(=O)c1ccc(-n2nc(-c3ccc(C(F)(F)F)cc3O)nc2-c2ccc(C(F)(F)F)cc2O)cc1` no

Also check `NS(=O)(=O)c1ccc(-n2nc(-c3ccc(F)cc3O)nc2-c2ccccc2O)cc1` yes
